System: TK-10
Protocol summary: NCI tumour cell line growth inhibition, 48 h
Calls of active or inactive are those of the source. Rule as the data show it: active = GI50 up to about 1.1 µM and inactive = higher.
I'd appreciate it if you could supply GI50 values for the items below.

Recorded GI50 for COC(=O)CN(CC(O)C(NC(C)=O)C(O)C=O)C(=O)OCc1ccccc1 (configuration not stated) , please?
> 100 µM (inactive)

Next compound: O=C(c1ccccc1)c1ccc2nc3n(c2c1)C(c1c(F)cccc1F)SC3 (configuration not stated)
22.9 µM (inactive)

Now the compound `c1c[nH]c(Cc2nc(Cc3c[nH]cn3)c[nH]2)n1`
67.5 µM (inactive)

Another compound: `O=[N+]([O-])/C(C(Cl)=C(Cl)Cl)=C(/Cl)SCc1ccccc1`
5.86 µM (inactive)

Next compound up: C[C@H]1NC(=O)C2CCCCN2C(=O)CN(C)C(=O)CNC(=O)C2CCCCN2C(=O)[C@@H](NC(=O)c2nc3ccccc3cc2O)[C@@H](C)NC(=O)C2CCCCN2C(=O)CN(C)C(=O)CNC(=O)[C@@H]2CCCCN2C(=O)C1NC(=O)c1nc2ccccc2cc1O (some centres not stated)
0.525 µM (active)

Quick one: CN(CCO)CCC1COc2ccccc2O1 (configuration not stated)
> 10 µM (inactive)

What do we get for `O=[N+]([O-])c1cccc2nc3ccccc3c(NCCC[N+]3([O-])CCCCC3)c12` ?
3.06 µM (inactive)
